Data provenance: the RNAGym collection of RNA variant scans (doi:10.1073/pnas.2313332121)

B1: TPR t1 (parent)
chain: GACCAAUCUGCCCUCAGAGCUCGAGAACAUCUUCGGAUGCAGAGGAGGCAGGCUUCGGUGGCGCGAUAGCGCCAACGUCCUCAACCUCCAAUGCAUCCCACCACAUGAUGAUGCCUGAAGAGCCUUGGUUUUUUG

Variants of: B1
experimentalProtocol: polymerase ribozyme fitness, log enrichment relative to wild type (log ratio); higher = more active; in vitro selection for triplet polymerase activity
Please mark Met if the recorded polymerase ribozyme fitness (log ratio) is equal to or greater than -3, and Not met if it falls below.

GACCAAUCUGACCUCAGAGCUCGAGAACAUCUUCGGAUGCAGAGGAGGCAGGCUUCGGUCGCGCGAUAGCGCCAACGUCCUCAACCUCCAAUGCAUCCCACCACAUGAUGAUGCCUGAAGAGCCUUGGUUUUUUG [C11A G60C]; Met
GACCAAUCUGCCCUCAGAGCUCGAGUACAUCUUCGGAUGCAGAGGAGGCAGGCUUCGGUGGCGCGAUAGCGCCAACGUCCUCAACCUCCAAUGCAUCCCACCACAUGAUGAUGCCUGAAGAGGCUUGGUUUUUUG [A26U C123G]; Met
GACCAAUCUGCCCUCAGAGCUCGAGAACAUCUUCGGAUUCAGAGGAGGCAGGCUUCGGUGGCGCGAUAGCGCCAACGUCCUCAACCUCCAAUGCAUCCCACCACAUGAUGAUGCCUGAAGAGCCUUCGUUUUUUG [G39U G127C]; Met

Q: Evaluate GACCAAUCGGCCCUCAGAGCUCGAGAACAUCUUCGGAUGCUGAGGAGGCAGGCAUCGGUGGCGCGAUAGCGCCAACGCCCUCAACCUCCAAUGCAUCCCACCACAUGAUGAUGCCUGAAGAGCCUUGGUUUUUUG [U9G A41U U54A U78C] : polymerase ribozyme fitness (log ratio) at minimum -3?
Ans: Met

Q: Evaluate GACCAAUCUGCCCUCAGAGCGCGAGAACAUCUUCGGAUGCAGAGGAGGCAGGCUUCGGUAGCCCGAUAGCGCCAACGACCUCAACCUCCAAUGCAUCCCACCACAUGAUGAUGCUUGAUGAGCCUUGGUAUUUUG [U21G G60A G63C U78A C115U A119U U130A] : polymerase ribozyme fitness (log ratio) at minimum -3?
Ans: Not met

Q: Evaluate GACCAAUCUUCCCUCAGAGCUCGAGAACAUCUUCGGAUGCAGAGGAGGCAGGAUUCGGUGGCGCGAUAGCGCCAACCACCUCAACCUCCAAUGCAUCCCACCACAUCAUGAUGCCUGAAGUGCCUUGGUUUUUUG [G10U C53A G77C U78A G107C A121U] : polymerase ribozyme fitness (log ratio) at minimum -3?
Ans: Not met

Q: Evaluate GACCAAUCUGCCCUCAGAGCUCGGGAACAUCUUCGGAUGCAGAGGAGGCAGGCUUCGGUGGCGCGAUAGCGCCAACGUCCUCAACCUCCAAUGCAUCCCACCACAUGAUGAUACCUGAAGAGCCUUGGUUUUUUG [A24G G113A] : polymerase ribozyme fitness (log ratio) at minimum -3?
Ans: Not met

Q: Evaluate GUCCAAUCUGCCCUCAGAGCUCGAGAACAUCUUCGGAUGCAGAGGAGGCAGGGUUCGGUGGCGCGAUAGCGCCAACGUCCUCAACCUGCAAUGCAUCCCACCACAUGAUGAUGCCUGAAGAGCCUUGGUUUUUUG [A2U C53G C88G] : polymerase ribozyme fitness (log ratio) at minimum -3?
Ans: Not met

Q: Evaluate GACCAAUCUGCCCACAGAGCUCGAGAACAUCUUCGGAUGCAGAGGAGGCAGGCUUCGGUGGCACGAUAGCGCCAACGUCCUCAACCUCCAAUACAUCCCACCACAUGAUGAUGCCUGAAGAGCCUUGGUUUUUUG [U14A G63A G93A] : polymerase ribozyme fitness (log ratio) at minimum -3?
Ans: Not met

Q: Evaluate GACCAAUCUGCCCUCAGAGCUCGAGAACAUCUUCGGAUGCAGAGGAGGCAGGCUACGGUGGCGCGAUAGCGCUAACGUCCUCAACGUCCAAUGCAUCCUACCACAUGAUGAUGCCUGAAGAGCCUUGGUUUUUUG [U55A C73U C86G C99U] : polymerase ribozyme fitness (log ratio) at minimum -3?
Ans: Not met
